Kindly supply the reported max activity values for the records listed here.
- experimentalProtocol: inhibitors of Toxoplasma growth in IFN-γ-primed HeLa – cell-based, ME49Luc, luciferase, 72 h, dose response (AID 1259418)
- conditionContext: T. gondii ME49Luc in IFN-y HeLa, hits give low values, -100% = high-dose IFN-γ control wells; at 19.5 µM unless noted
In all, about 3,400 compounds went through this assay and about 840 (25%) were called active. About 11% were inconclusive and are not listed. Only a sample is shown. Measured potencies and affinities stand elsewhere.

Inquiry: Please look up its max activity: "Cc1ccc2c(c1C)-n1cccc1C1(CCN(C(=O)c3c(F)cccc3F)CC1)N2"
Reply text: -8.13% [at 0.16 µM] (inactive)

Inquiry: GET /values?readout=max activity&item= "CCOc1ccc(Nc2nc(-c3ccc(OC)cc3)nc3ccccc23)cc1"
Reply text: 9.36% (inactive)

Inquiry: # input compound: "Cc1csc(-c2cc(S(=O)(=O)N3CCC(Cc4ccccc4)CC3)c(C)s2)n1" ; wanted: its max activity
Reply text: -11.8% [at 0.16 µM] (inactive)

Inquiry: Requested read-out: max activity. Entry: "COc1cc(C(=O)Nc2ccc(-c3nc(-c4cc(C)ccc4C)co3)cc2)cc(OC)c1OC"
Reply text: -22.7% [at 0.16 µM] (inactive)

Inquiry: Requested read-out: max activity. Entry: "Cc1ccc(NC(=O)Nc2ccc(-c3nc(-c4ccccc4)co3)cc2)cc1F"
Reply text: 16.5% [at 0.16 µM] (inactive)

Inquiry: Suppose we examine the compound "COc1cc(NC(=O)Nc2ccc(-c3nc(-c4ccc(C)cc4)co3)cc2)cc(OC)c1OC" ; what max activity value has been reported?
Reply text: -16.6% [at 0.68 µM] (inactive)

Inquiry: GET /values?readout=max activity&item= "O=C1CCc2cc(NC(=O)c3cncc(Br)c3)ccc2N1"
Reply text: 4.53% [at 0.68 µM] (inactive)

Inquiry: If you can, please state the reported max activity value of CCC(C)NC(=O)Cn1c(=O)c(S(=O)(=O)c2ccccc2)cc2cc(C)ccc21 (stereo unspecified) .
Reply text: -4.98% [at 10 µM] (inactive)

Inquiry: # lookup: max activity of "Cc1oc(-c2ccccc2)nc1Cn1nnc(-c2nc(-c3cccc(C(F)(F)F)c3)no2)c1C"
Reply text: -10.4% [at 0.35 µM] (inactive)

Inquiry: Any idea what max activity was measured for "O=C(NCc1cncc2c1CCN(Cc1cccc(F)c1)C2)C1CC1" ?
Reply text: 11.5% (inactive)

Inquiry: What value of measured max activity is listed for "CN(C)CCO[C@@H]1CN(C(=O)Cc2ccsc2)[C@H]2CCCO[C@@H]12" ?
Reply text: 38.7% (inactive)

Inquiry: # lookup: max activity of "COc1ccc(-c2nc(Nc3ccc(Cl)cc3)c3ccccc3n2)cc1"
Reply text: 10.4% [at 0.35 µM] (inactive)

Inquiry: # input compound: "Fc1cccc(-c2noc(-c3ccc(N4CCC(N5CCCCC5)CC4)nc3)n2)c1" ; wanted: its max activity
Reply text: 21.6% [at 5 µM] (inactive)

Inquiry: What value of max activity has been reported for the following compound? "Cc1cnc(N2CC[C@H]3CN(CC(=O)N(C)C)S(=O)(=O)[C@@H]3CC2)nc1"
Reply text: 21.5% (inactive)

Inquiry: # lookup: max activity of "Cc1nc(N2CCCC2)nc2c1CCN(C(=O)c1ccoc1C)CC2"
Reply text: -9.94% [at 0.3 µM] (inactive)

Inquiry: Given "CSc1cccc(NC(=O)Nc2ccc(-c3nc(-c4ccccc4)co3)cc2)c1" , state its recorded max activity.
Reply text: 76% (inactive)

Inquiry: What does the record list as max activity for "Cc1ccc(C)c(-c2coc(-c3ccc(NC(=O)NCc4ccco4)cc3)n2)c1" ?
Reply text: -45.2% [at 1.35 µM] (inactive)

Inquiry: // returns reported max activity for input "Cc1oc(-c2ccccc2)nc1CSc1nc2c(c(=O)[nH]1)CN(Cc1ccc(F)cc1)CC2"
Reply text: 22.6% [at 0.35 µM] (inactive)

Inquiry: Which max activity is reported for this compound? "Cc1ccc2[nH]c(C(=O)N3CCN(c4ccccn4)CC3)c(NC(=O)c3ccc(Cl)cc3)c2c1"
Reply text: 30.8% [at 10 µM] (inactive)

Inquiry: Recorded max activity of "COc1ccc(-c2nc(Nc3ccc(F)cc3)c3ccccc3n2)cc1" , please.
Reply text: -11.2% [at 2.6 µM] (inactive)

Inquiry: Give its max activity value. Item: "COc1ccccc1NC(=O)Nc1ccc(-c2nc(-c3ccccc3)co2)cc1"
Reply text: 62.5% [at 10 µM] (inactive)
